- ASSAY_NAME: NCI Yeast Anticancer Drug Screen. Data for the cln2 rad14 strain (AID 165);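 further: 0% = growth equal to vehicle treated cultures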
- ASSAY_CONTEXT: S. cerevisiae cln2 rad14 strain, at 50.0 µM (retest, dose inferred, filed as 5.0)
The panel holds about 79,000 compounds, 15% with a hit somewhere; the sample as a whole holds those more often. The source made the active and inactive calls. No stated cut-off is given here; in the data, active means growth inhibition above about 70%; inactive means the rest.
# valid calls are YES for active, NO for inactive; nothing else

QUERY: Test call for this compound, please: CC(O)CN1C(=O)c2cccc3cc([N+](=O)[O-])cc(c23)C1=O (centres undefined)
RESULT: NO

QUERY: How was `Cc1ccc(SSc2ccc(C)cc2[N+](=O)[O-])c([N+](=O)[O-])c1` classified in this test?
RESULT: YES

QUERY: Would you mind telling me which call this test gave `COc1ccc(/C=C2\CCc3ccccc3C2=O)cc1OC` ?
RESULT: NO

QUERY: What did this assay record as the result for CCOC(=O)C(NC(=O)c1ccccc1)[CH](c1ccccc1)[Sn]([c]1ccccc1)([c]1ccccc1)[c]1ccccc1 (centres undefined) ?
RESULT: NO

QUERY: Give the logged outcome of this assay for the following compound: `O=C(O)CN(CCNC(=O)OCC1c2ccccc2-c2ccccc21)CCNC(=O)OCC1c2ccccc2-c2ccccc21`
RESULT: NO

QUERY: # lookup: test call for `O=C(Nn1c(-c2ccccc2)nc2ccccc2c1=O)c1ccc(Cl)cc1`
RESULT: NO

QUERY: Test call for this compound, please: `CCCC#CCOC(=O)c1cc([N+](=O)[O-])cc([N+](=O)[O-])c1`
RESULT: YES

QUERY: In this assay, the call recorded for `CCCCCC(=O)C(C)(c1nc2n(c1O)/C(=N/C(=O)Nc1ccc(Cl)cc1)N=N2)c1nc2n(c1O)/C(=N/C(=O)Nc1ccc(Cl)cc1)N=N2` was what?
RESULT: NO

QUERY: Hi, do you know how `N#C/C(=C1C=C/C(=N\O)C(Cl)=C\1)c1ccccc1` came out in this test?
RESULT: NO

QUERY: Test call for this compound, please: `O=[N+]([O-])c1cccc2nc3ccccc3c(NCCC[N+]3([O-])CCOCC3)c12`
RESULT: YES

QUERY: What was the test verdict on CC(C)(C)[Si](C)(C)OCC1OC(n2cnc3c(N)ncnc32)C2OC(=S)OC12 (centres undefined) ?
RESULT: YES

QUERY: Would you mind telling me which call this test gave CCCCCCCCCCCC[N+](C)(C)Cc1ccccc1 (tested in a mixture with another compound) ?
RESULT: YES

QUERY: State the result this test recorded for `C[n+]1c(-c2ccc(NC(=O)c3ccc(C(=O)Nc4ccc(-c5cn6ccccc6[n+]5C)cc4)cc3)cc2)cn2ccccc21` .
RESULT: YES

QUERY: What was the test verdict on `COc1cc(C(C)(C)C)cc(OC)c1C(O)(c1c(OC)cc(C(C)(C)C)cc1OC)c1c(OC)cc(C(C)(C)C)cc1OC` ?
RESULT: YES

QUERY: For `BrC/C=C/C[P+](c1ccccc1)(c1ccccc1)c1ccccc1` , what call appears in the results of this test?
RESULT: NO

QUERY: What classification did `O=C1c2ccccc2C(=O)C1C(c1ccc(F)cc1)C1C(=O)c2ccccc2C1=O` end up with in this test?
RESULT: YES

QUERY: Query: recorded result category for O=C1c2ccccc2-c2ccc(NC(=O)C3CCCCC3C(=O)O)cc21 (centres undefined) in this test
RESULT: NO

QUERY: Hey, what did the test say about CC1C=CN(N(C)C)C2=C1C(=O)c1cnccc1C2=O (centres undefined) ?
RESULT: NO

QUERY: State the result this test recorded for OC(c1ccc(Br)cc1)(c1cccs1)C1CC1 (centres undefined) .
RESULT: YES

----------
- ASSAY_NAME: NCI Yeast Anticancer Drug Screen. Data for the rad14 strain (AID 159);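 further: 0% = growth of vehicle-treated control cultures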
- ASSAY_CONTEXT: S. cerevisiae rad14 strain growth inhibition; at 1.2 µM; hits give high values
About 79,000 compounds went through this panel and 15% of them were active in at least one assay; those are over-represented in the sample as a whole.
READOUT_KIND: growth inhibition (%)
Give just the number in %; leave the unit off.

QUERY: Would you mind telling me what growth inhibition value was observed for `C#CC1=CC(=O)C(OC)=CC1=O` ?
RESULT: 12

QUERY: Field request: growth inhibition | item: `Nc1ccc2ncc(Nc3ccc(Cl)c(Cl)c3)nc2c1`
RESULT: -20

QUERY: growth inhibition lookup needed for CC(O)CN1C(=O)c2cccc3cc([N+](=O)[O-])cc(c23)C1=O (stereo unspecified) , thanks.
RESULT: 2

QUERY: Name the reported growth inhibition value associated with the molecule `Cc1cc(N(CCOS(C)(=O)=O)CCOS(C)(=O)=O)ccc1C=O`
RESULT: 20

QUERY: Suppose we examine the molecule `O=C(Cc1ccccc1F)NC1=C(Cl)C(=O)c2ccccc2C1=O` ; what growth inhibition value has been reported?
RESULT: -26

QUERY: So what does the record say about growth inhibition for `Clc1ccc(C(c2ccc(Cl)cc2)N2CCNCC2)cc1` ?
RESULT: -36

----------
Exercise: for every item that follows, state its recorded growth inhibition.
- ASSAY_NAME: NCI Yeast Anticancer Drug Screen. Data for the wt2 strain (AID 169);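 further: 0% = growth of vehicle-treated yeast cultures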
- ASSAY_CONTEXT: S. cerevisiae wt2 strain growth inhibition; at 33.0 µM; hits give high values
About 79,000 compounds went through this panel and 15% of them were active in at least one assay; those are over-represented in the sample as a whole.
Could you give me the number in %? Just the number is fine.

QUERY: I'd like to know its growth inhibition. The compound in question is CC1C=CN(N(C)C)C2=C1C(=O)c1cnccc1C2=O (configuration not stated)
RESULT: 90

QUERY: Need growth inhibition, item Cc1ccccc1C1=C(CC(=O)O)c2ccccc2CC1C (configuration not stated)
RESULT: 97

QUERY: Give its growth inhibition value. Item: CC(C)c1ccc(C2NC(=S)NC3=C2c2ccccc2C3=O)cc1 (configuration not stated)
RESULT: 22

QUERY: Item under review: `O=[N+]([O-])C(=C(NCc1ccccc1)NCc1ccccc1)C(Cl)=C(Cl)Cl` . Reported growth inhibition?
RESULT: 19

QUERY: So what does the record say about growth inhibition for `CC(=O)O/N=C/c1c2ccccc2cc2ccccc12` ?
RESULT: 13

QUERY: Give the measured growth inhibition of CC(C)(C)[Si](C)(C)OCC1OC(n2cnc3c(N)ncnc32)C2OC(=S)OC12 (configuration not stated) .
RESULT: 2

QUERY: Report growth inhibition for CCOC(=O)c1[nH]c2cccc3c2c1CC(Br)C3=O (configuration not stated) please.
RESULT: 97

QUERY: Reported growth inhibition for `CCOc1nc(OCC)nc(-c2cccn2-c2ccccc2)n1` : what is it?
RESULT: 38

QUERY: Returns the measured growth inhibition for the input compound. Input: `CC1=Cc2ccc(C)cc2C(=O)C1=O`
RESULT: -1

QUERY: Which growth inhibition value is on record for `O=C(N/N=C/c1ccc2c(c1)CCC2)c1ccccc1[N+](=O)[O-]` ?
RESULT: 37

QUERY: Look up growth inhibition: `O=C(/C(=C/c1ccccc1)CBr)c1ccccc1`
RESULT: 95

QUERY: Can you share its growth inhibition? I mean this compound: COc1ccc(/C(=N/O)c2ccccc2C2=Nc3ccccc3C(NCc3ccccc3)O2)cc1C (configuration not stated)
RESULT: 14

QUERY: Dear colleague, I am looking for the recorded growth inhibition of the following compound: `O=c1c(Br)cc2c(-c3ccccc3)c3cc(Br)c(O)c(Br)c3oc-2c1Br`
RESULT: 18

QUERY: Need growth inhibition, item `O=c1oc(C(C(F)(F)F)C(F)(F)F)nc2ccccc12`
RESULT: 2

QUERY: Which value of growth inhibition has been reported for `CC[C@@]1(OC(=O)CN(C)C)C(=O)OCc2c1cc1n(c2=O)Cc2cc3ccccc3nc2-1` in the records?
RESULT: 84

QUERY: Bench note: what growth inhibition did `CCc1nc2ccc(N=Nc3c(O)ccc4ccccc34)cc2[nH]1` show?
RESULT: 12

QUERY: What measured growth inhibition goes with `Nc1ccc2cc(Br)c3ccccc3c2c1` ?
RESULT: 2

QUERY: For the compound `CC(=O)CC[N+](C)(C)C` , what growth inhibition is on record?
RESULT: -31

QUERY: Fill in the blank: the reported growth inhibition of `CCN(CC)c1cccc(Nc2nc3ccccc3s2)c1` is ____.
RESULT: -2

QUERY: For the compound shown here, `Cc1ccc(N(C=O)c2c([N+](=O)[O-])cc([N+](=O)[O-])c3c2=[N+]([O-])CN=3)cc1` , give the reported growth inhibition.
RESULT: 90

QUERY: // query growth inhibition value for entry CC[N+]1(C)CCC(O)(/C=C/c2ccc(Cl)c(Cl)c2)C(C(=O)/C=C/c2ccc(Cl)c(Cl)c2)C1 (configuration not stated)
RESULT: 99

QUERY: // lookup growth inhibition for `c1cc2ccc3cc4ncccc4c4ccc(c1)c2c34`
RESULT: 53

QUERY: Item `CNC(=O)OCc1c(COC(=O)NC)c(C)n(-c2ccc(Cl)c(Cl)c2)c1C` has what recorded growth inhibition?
RESULT: 91

QUERY: Field request: growth inhibition | item: `Cc1cccc(N2CCN(C(=O)/C(=C/c3ccccc3)NC(=O)c3ccccc3)CC2)c1`
RESULT: 38

QUERY: Query: growth inhibition; subject: `Clc1ccc(C(c2ccc(Cl)cc2)N2CCNCC2)cc1`
RESULT: 46

QUERY: Endpoint output: growth inhibition of `COc1ccc2nc(N/N=C/c3sccc3C)cc(C)c2c1` . Value?
RESULT: 98

QUERY: I would be grateful if you could share the reported growth inhibition for `S=c1[nH]nc(Cc2ccccc2)c(=S)[nH]1` .
RESULT: 94

QUERY: State the recorded growth inhibition for this entry: `O=Cc1ccccc1B(O)O`
RESULT: 100

QUERY: Given the compound `O=C(CSS(=O)(=O)O)c1ccccc1` , what is its reported growth inhibition?
RESULT: 6

QUERY: Entry `CCOC(=O)C1=C(C)NC(C)=C(C(=O)OCC)C1c1cccc([N+](=O)[O-])c1` has what growth inhibition?
RESULT: 45

QUERY: Quick check: growth inhibition of NCC(O)CSCc1ccc(Cl)cc1 (configuration not stated) ?
RESULT: 1

QUERY: Which growth inhibition is reported for this compound? `Cc1ccc(SSc2ccc(C)cc2[N+](=O)[O-])c([N+](=O)[O-])c1`
RESULT: 82

QUERY: Return reported growth inhibition; argument: `N=C(N)c1ccc(N=Nc2c(O)ccc3c2[nH]c2ccccc23)cc1`
RESULT: 95

QUERY: What value of growth inhibition has been reported for the following compound? `CN(C)CCC(=O)c1c[nH]c2ccccc12`
RESULT: -14

QUERY: Given `O=C(O)CN(CCNC(=O)OCC1c2ccccc2-c2ccccc21)CCNC(=O)OCC1c2ccccc2-c2ccccc21` , state its recorded growth inhibition.
RESULT: 98

QUERY: Quick one: growth inhibition for `Nc1nc(Nc2ccccc2)nc(Nc2ccccc2)n1` ?
RESULT: 66

QUERY: What measured growth inhibition goes with `Cc1nc2ccccc2c(=O)n1NC(=O)c1ccc(CS)cc1` ?
RESULT: 16

QUERY: // lookup growth inhibition for `CN(C)CCn1c2ccccc2c2nc3cc4ccccc4cc3nc21`
RESULT: 77

QUERY: Form field: reported growth inhibition of `CN(C)/N=N/c1nc[nH]c1C(N)=O`
RESULT: -2

QUERY: I would be grateful if you could share the reported growth inhibition for `CCCCCCCCCC/C=C\CC(=O)O` .
RESULT: 3

QUERY: Recorded growth inhibition for `O=C(Cc1ccccc1)c1ccc(O)cc1` , please?
RESULT: 58

QUERY: Name the reported growth inhibition value associated with the compound `COc1ccc2nc3cccc([N+](=O)[O-])c3c(NCCCO)c2c1`
RESULT: 96

QUERY: Fill blank: measured growth inhibition of the compound `Cc1ccnc(NS(=O)(=O)c2ccc(Nc3c4ccccc4nc4ccccc34)cc2)n1` is ____.
RESULT: 44

QUERY: Suppose we examine the compound c1ccc(C2=NNC3c4ccccc4-c4ccccc4N3C2)cc1 (configuration not stated) ; what growth inhibition value has been reported?
RESULT: 1

QUERY: For the compound `Cc1ccc2oc(-c3cccc(N)c3)nc2c1` , what growth inhibition is on record?
RESULT: 1

QUERY: // returns reported growth inhibition for input `CCOC(=O)c1sc2[n+](c1C)C(=O)/C(=C/c1cc(OC)c(OC)c(OC)c1)S2`
RESULT: 85

QUERY: I'd like to know its growth inhibition. The compound in question is `Cc1cccc[c]1[Sn]([Cl])([S]/C(C#N)=N/N=C/c1ccc(N(C)C)cc1)[c]1ccccc1C`
RESULT: 32

Values compiled from PubChem BioAssay (NCI).
